Numbers sourced from ChEMBL document CHEMBL3758105.

Target: Collagenase 3 (Homo sapiens)
Assay: Inhibition of full length human recombinant MMP13 using MCA-Arg-Pro-Leu-Gly-Leu-Dpa-Ala-Arg-Glu-Arg-NH2 as substrate preincubated for 60 mins followed by substrate addition by fluorescence assay
Sorting guide: entries reporting Ki beneath 6 nM go in the yes pile, the rest go in the no pile.

INSERT INTO results (compound, qualitative_label) VALUES
  ('Cc1cc(-c2nnn(C[C@H]3CC[C@H](CO)CC3)n2)cc(C(=O)NCc2cccc(C(F)(F)F)c2)n1', 'no'),
  ('Cc1cc(-c2nnn(C[C@H]3CC[C@H](CO)CC3)n2)cc(C(=O)NCc2ccc(F)c(F)c2)n1', 'no'),
  ('COc1cccc(CNC(=O)c2cc(-c3nnn(CC4CCN(C(C)=O)CC4)n3)cc(C)n2)c1', 'no'),
  ('COc1cccc(CNC(=O)c2cc(-c3nnn(C[C@H]4CC[C@H](C#N)CC4)n3)cc(C)n2)c1', 'yes'),
  ('Cc1cc(-c2nnn(C[C@H]3CC[C@H](CO)CC3)n2)cc(C(=O)NCc2cccc(Cl)c2)n1', 'no'),
  ('COc1cc(CNC(=O)c2cc(-c3nnn(C[C@H]4CC[C@H](CO)CC4)n3)cc(C)n2)ccc1F', 'yes'),
  ('COc1cccc(CNC(=O)c2cc(-c3nnn(C[C@H]4CO[C@H](CO)CO4)n3)nc(C)n2)c1 (racemic)', 'yes'),
  ('COc1cccc(CNC(=O)c2cc(-c3nnn(CC4CCCCC4)n3)cc(C)n2)c1', 'no');
